- measurement-protocol: TRM-201-PK-102 single-dose four-period crossover pharmacokinetic study, fasted healthy subjects
- Format: in vivo, human
- setup-conditions: 17.5 mg, 45 minutes
- Method: A Single-Dose, Open-Label, Phase 1, Four-Period Crossover Pharmacokinetic Study of TRM-201 (Rofecoxib) 12.5 mg, 17.5 mg, 20 mg and 25 mg Administered to Healthy Subjects in a Fasting State, with Comparison to Historical Pharmacokinetic Parameters of Previously Marketed Rofecoxib (“TRM-201-PK-102” or “102 PK Study”) […] In each of the four dosing periods, subjects fasted overnight for at least 10 hours before study drug dosing. […] Pharmacokinetic and safety endpoints were evaluated. […]

entry-smiles	arithmetic mean plasma concentration
CS(=O)(=O)c1ccc(C2=C(c3ccccc3)C(=O)OC2)cc1	93 ng/mL

----------
- measurement-protocol: TRM-201-PK-102 single-dose four-period crossover pharmacokinetic study, fasted healthy subjects
- Type: in vivo, human
- setup-conditions: human, plasma, oral, 17.5 mg, 102 study, Black or African-American subjects, read-out: geometric mean AUC0-∞

entry-smiles	AUC(0-inf), ng·h/mL
CS(=O)(=O)c1ccc(C2=C(c3ccccc3)C(=O)OC2)cc1	2800

----------
- measurement-protocol: TRM-201-PK-102 single-dose four-period crossover pharmacokinetic study, fasted healthy subjects
- Type: in vivo, human
- setup-conditions: male, human, plasma, oral, 25 mg, 102 study, printed 'For males' (second statement, after the females' arithmetic means), read-out: geometric mean AUC0-∞

entry-smiles	AUC(0-inf), ng·h/mL
CS(=O)(=O)c1ccc(C2=C(c3ccccc3)C(=O)OC2)cc1	5020

----------
- measurement-protocol: TRM-201-PK-102 single-dose four-period crossover pharmacokinetic study, fasted healthy subjects
- Format: in vivo, human
- setup-conditions: human, plasma, oral, 25 mg, 102 study, body weight 77.1-90 kg, read-out: geometric mean AUC0-∞
- Method: A Single-Dose, Open-Label, Phase 1, Four-Period Crossover Pharmacokinetic Study of TRM-201 (Rofecoxib) 12.5 mg, 17.5 mg, 20 mg and 25 mg Administered to Healthy Subjects in a Fasting State, with Comparison to Historical Pharmacokinetic Parameters of Previously Marketed Rofecoxib (“TRM-201-PK-102” or “102 PK Study”) […] In each of the four dosing periods, subjects fasted overnight for at least 10 hours before study drug dosing. […] Pharmacokinetic and safety endpoints were evaluated. […]

entry-smiles	AUC(0-inf) (ng·h/mL)
CS(=O)(=O)c1ccc(C2=C(c3ccccc3)C(=O)OC2)cc1	4040

----------
- measurement-protocol: TRM-201-PK-102 single-dose four-period crossover pharmacokinetic study, fasted healthy subjects
- Assay type: in vivo, human
- setup-conditions: human, plasma, oral, 25 mg, 45 minutes, read-out: geometric mean plasma concentration

entry-smiles	concentration at 45 minutes (ng/mL)
CS(=O)(=O)c1ccc(C2=C(c3ccccc3)C(=O)OC2)cc1	97.6

----------
- measurement-protocol: TRM-201-PK-102 single-dose four-period crossover pharmacokinetic study, fasted healthy subjects
- Format: in vivo, human
- setup-conditions: human, plasma, oral, 20 mg, 102 study, Black or African-American subjects, read-out: arithmetic mean AUC0-∞

compound	AUC(0-inf) [µg·h/mL]
CS(=O)(=O)c1ccc(C2=C(c3ccccc3)C(=O)OC2)cc1 [TRM-201]	3.38

----------
- measurement-protocol: TRM-201-PK-102 single-dose four-period crossover pharmacokinetic study, fasted healthy subjects
- Assay type: in vivo, human
- setup-conditions: human, plasma, oral, 17.5 mg, 102 study, White subjects, read-out: arithmetic mean AUC0-∞

compound	AUC(0-inf), ng·h/mL
CS(=O)(=O)c1ccc(C2=C(c3ccccc3)C(=O)OC2)cc1 [TRM-201]	3400

----------
- measurement-protocol: TRM-201-PK-102 single-dose four-period crossover pharmacokinetic study, fasted healthy subjects
- Type: in vivo, human
- setup-conditions: human, plasma, oral, 20 mg, 102 study, body weight 47-70 kg, read-out: arithmetic mean Cmax
observable: Cmax (ng/mL)

entry-smiles	reported-result
CS(=O)(=O)c1ccc(C2=C(c3ccccc3)C(=O)OC2)cc1	336

----------
- measurement-protocol: TRM-201-PK-102 single-dose four-period crossover pharmacokinetic study, fasted healthy subjects
- Format: in vivo, human
- setup-conditions: human, plasma, oral, 17.5 mg, 102 study, body weight 77.1-90 kg, read-out: geometric mean Cmax
observable: Cmax (ng/mL)

molecule	observable	reported-result
CS(=O)(=O)c1ccc(C2=C(c3ccccc3)C(=O)OC2)cc1 [TRM-201]	Cmax	194

----------
- measurement-protocol: TRM-201-PK-102 single-dose four-period crossover pharmacokinetic study, fasted healthy subjects
- Type: in vivo, human
- setup-conditions: human, plasma, oral, 17.5 mg, 102 study, 41-52 years, read-out: arithmetic mean Cmax

entry-smiles	reading-unit	Cmax
CS(=O)(=O)c1ccc(C2=C(c3ccccc3)C(=O)OC2)cc1	ng/mL	232

----------
- measurement-protocol: TRM-201-PK-102 single-dose four-period crossover pharmacokinetic study, fasted healthy subjects
- Type: in vivo, human
- setup-conditions: human, plasma, oral, 25 mg, 102 study, White subjects, read-out: geometric mean Cmax

entry-smiles	reading-unit	Cmax
CS(=O)(=O)c1ccc(C2=C(c3ccccc3)C(=O)OC2)cc1	ng/mL	341

----------
- measurement-protocol: TRM-201-PK-102 single-dose four-period crossover pharmacokinetic study, fasted healthy subjects
- Type: in vivo, human
- setup-conditions: human, plasma, oral, 12.5 mg, 102 study, non-Hispanic or non-Latino subjects, read-out: geometric mean Cmax

entry-smiles	Cmax [ng/mL]
CS(=O)(=O)c1ccc(C2=C(c3ccccc3)C(=O)OC2)cc1	141

----------
- measurement-protocol: TRM-201-PK-102 single-dose four-period crossover pharmacokinetic study, fasted healthy subjects
- Assay type: in vivo, human
- setup-conditions: male, human, plasma, oral, 17.5 mg, 102 study, males, read-out: geometric mean AUC0-∞
observable: AUC(0-inf)

entry-smiles	reported-result
CS(=O)(=O)c1ccc(C2=C(c3ccccc3)C(=O)OC2)cc1	2710 ng·h/mL

----------
- measurement-protocol: TRM-201-PK-102 single-dose four-period crossover pharmacokinetic study, fasted healthy subjects
- Assay type: in vivo, human
- setup-conditions: human, plasma, oral, 12.5 mg, 102 study, 41-52 years, read-out: geometric mean Cmax

entry-smiles	reading-unit	Cmax
CS(=O)(=O)c1ccc(C2=C(c3ccccc3)C(=O)OC2)cc1	ng/mL	133

----------
- measurement-protocol: TRM-201-PK-102 single-dose four-period crossover pharmacokinetic study, fasted healthy subjects
- Assay type: in vivo, human
- setup-conditions: male, human, plasma, oral, 12.5 mg, 102 study, males, read-out: arithmetic mean Cmax
observable: Cmax

entry-smiles	observable	reported-result
CS(=O)(=O)c1ccc(C2=C(c3ccccc3)C(=O)OC2)cc1	Cmax	132 ng/mL

----------
- measurement-protocol: TRM-201-PK-102 single-dose four-period crossover pharmacokinetic study, fasted healthy subjects
- Type: in vivo, human
- setup-conditions: male, human, plasma, oral, 25 mg, 102 study, males, read-out: geometric mean Cmax

molecule	Cmax / ng/mL
CS(=O)(=O)c1ccc(C2=C(c3ccccc3)C(=O)OC2)cc1 [TRM-201]	298

----------
- measurement-protocol: TRM-201-PK-102 single-dose four-period crossover pharmacokinetic study, fasted healthy subjects
- Format: in vivo, human
- setup-conditions: human, plasma, oral, 12.5 mg, 102 study, White subjects, read-out: geometric mean Cmax

entry-smiles	Cmax (ng/mL)
CS(=O)(=O)c1ccc(C2=C(c3ccccc3)C(=O)OC2)cc1	144

----------
- measurement-protocol: TRM-201-PK-101 single-dose pharmacokinetic study, 25 mg, fasted healthy subjects
- Type: in vivo, human
- setup-conditions: human, plasma, oral; 17.5 mg formulation, estimated from 101 data; read-out: estimated AUC
observable: AUC

entry-smiles	observable	reported-result
CS(=O)(=O)c1ccc(C2=C(c3ccccc3)C(=O)OC2)cc1	AUC	~3280 ng·h/mL

----------
- measurement-protocol: TRM-201-PK-102 single-dose four-period crossover pharmacokinetic study, fasted healthy subjects
- Format: in vivo, human
- setup-conditions: human, plasma, oral, 17.5 mg, 102 study only, read-out: arithmetic mean Cmax

molecule	Cmax / µg/mL
CS(=O)(=O)c1ccc(C2=C(c3ccccc3)C(=O)OC2)cc1 [TRM-201]	0.236

----------
- measurement-protocol: TRM-201-PK-102 single-dose four-period crossover pharmacokinetic study, fasted healthy subjects
- Assay type: in vivo, human
- setup-conditions: human, plasma, oral, 25 mg, 15 minutes, read-out: arithmetic mean plasma concentration
observable: concentration at 15 minutes (ng/mL)

entry-smiles	reported-result
CS(=O)(=O)c1ccc(C2=C(c3ccccc3)C(=O)OC2)cc1	5.63

----------
- measurement-protocol: TRM-201-PK-102 single-dose four-period crossover pharmacokinetic study, fasted healthy subjects
- Type: in vivo, human
- setup-conditions: human, plasma, oral, 20 mg, 102 study, body weight 47-70 kg, read-out: geometric mean Cmax
observable: Cmax (ng/mL)

entry-smiles	reported-result
CS(=O)(=O)c1ccc(C2=C(c3ccccc3)C(=O)OC2)cc1	307

----------
- measurement-protocol: TRM-201-PK-102 single-dose four-period crossover pharmacokinetic study, fasted healthy subjects
- Assay type: in vivo, human
- setup-conditions: human, plasma, oral, 12.5 mg, 102 study, White subjects, read-out: arithmetic mean Cmax

entry-smiles	Cmax (µg/mL)
CS(=O)(=O)c1ccc(C2=C(c3ccccc3)C(=O)OC2)cc1	0.153
